Target: Human GLP-1 receptor stably expressing cells (hGLP-1R/CHO-K1 cells) (Homo sapiens, UniProt P43220)
Construct: expressed in transfected cells
Sequence (P43220 24-463): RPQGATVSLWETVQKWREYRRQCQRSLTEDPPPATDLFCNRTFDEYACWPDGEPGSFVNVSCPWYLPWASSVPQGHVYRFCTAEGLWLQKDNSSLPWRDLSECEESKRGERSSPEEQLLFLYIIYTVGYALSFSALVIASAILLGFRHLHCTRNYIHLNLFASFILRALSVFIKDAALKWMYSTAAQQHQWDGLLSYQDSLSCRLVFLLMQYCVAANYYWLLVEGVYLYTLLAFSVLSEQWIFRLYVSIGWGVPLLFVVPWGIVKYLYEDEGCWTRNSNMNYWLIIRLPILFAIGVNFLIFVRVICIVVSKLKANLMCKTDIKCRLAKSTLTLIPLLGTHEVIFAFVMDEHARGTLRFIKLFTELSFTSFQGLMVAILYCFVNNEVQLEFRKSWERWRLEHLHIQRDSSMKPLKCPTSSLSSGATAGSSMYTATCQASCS
Test: Measurement of GLP-1 receptor agonist activity (cAMP assay)
Type: cell-based
Conditions: increase in cAMP concentration in hGLP-1R/CHO-K1 cells, 37° C. 1 hour
Method: Test Example 1: Measurement of GLP-1 Receptor Agonist Activity Human GLP-1 receptor stably expressing cells (hGLP-1R/CHO-K1 cells) are cultured in an a-MEM medium (Sigma) containing 10% FBS (Hyclone), 2% GlutaMAX (Gibco), 1% G418 (Nacalai Tesque), and 1% Penicillin-Streptomycin Mixed Solution (Sigma) at 37° C. under 5% CO2 conditions, and recovered by treating a 10 fold diluted 5.0 g/1-trypsin/5.3 mmol/1-EDTA solution (Nacalai Tesque) and cryopreserved. […]
pEC50: −log10 of the molar value.

MOLECULE | pEC50
C[C@H]1c2nc(OCc3ccccc3Cl)c(C(F)F)cc2CCN1Cc1nc2ccc(C(=O)O)c(F)c2n1C[C@@H]1CCO1 [Compound I-120] | 9.32
C[C@H]1c2nc(OCc3cc(F)c(Cl)cc3F)c(Cl)cc2CCN1Cc1nc2ccc(C(=O)O)nc2n1C[C@@H]1CCO1 [Compound I-031] | 9.50
C[C@H]1c2nc(NCc3ccc(Cl)cc3F)c(C(F)(F)F)cc2CCN1Cc1nc2ccc(C(=O)O)cc2n1C[C@@H]1CCO1 [Compound I-094] | 9.59
C[C@H]1c2nc(OCc3ccc(Cl)cc3)c(Cl)cc2CCN1Cc1nc2ccc(C(=O)O)cc2n1C[C@@H]1CCO1 [Compound I-017] | 9.77
C[C@H]1c2nc(OCc3ccc(Cl)cc3)c(C#N)cc2CCN1Cc1nc2c(Cl)cc(C(=O)O)cc2n1C[C@@H]1CCO1 [Compound I-189] | 9.65
C[C@H]1c2nc(OCc3ccc(Cl)cc3F)c(C(F)(F)F)cc2CCN1Cc1nc2c(-c3cnn(C)c3)cc(C(=O)O)cc2n1C[C@@H]1CCO1 [Compound I-178] | 7.91
C[C@H]1c2nc(OCc3c(F)cc(F)cc3F)c(Cl)cc2CCN1Cc1nc2ccc(C(=O)O)cc2n1C[C@@H]1CCO1 [Compound I-025] | 9.51
C[C@H]1c2nc(OCc3ccc(OC(F)F)cc3F)c(C(F)F)cc2CCN1Cc1nc2ccc(C(=O)O)cc2n1C[C@@H]1CCO1 [Compound I-059] | 8.89
COc1cc(C(=O)O)cc2c1nc(CN1CCc3cc(Cl)c(OCc4ccc(F)cc4F)nc3[C@@H]1C)n2C[C@@H]1CCO1 [Compound I-069] | 10.37
C[C@H]1c2nc(OCc3cc(Cl)n(C)n3)c(C(F)(F)F)cc2CCN1Cc1nc2ccc(C(=O)O)cc2n1C[C@@H]1CCO1 [Compound I-154] | 8.15
O=C(O)c1ccc2nc(Cc3ccc4nc(C(F)(F)F)c(OCc5ccc(Cl)cc5F)nc4c3F)n(C[C@@H]3CCO3)c2c1F [Compound I-001] | 9.27
C[C@H]1c2nc(CCc3ccc(Cl)cc3)c(C(F)(F)F)cc2CCN1Cc1nc2ccc(C(=O)O)cc2n1C[C@@H]1CCO1 [Compound I-095] | 9.15
COc1cc(C(=O)O)cc2c1nc(CN1CCc3cc(Cl)c(OCc4ccc(Cl)cc4F)nc3[C@@H]1C)n2C[C@@H]1CCO1 [Compound I-076] | 10.68
C[C@H]1c2nc(OCc3c(F)cc(Cl)cc3F)c(Cl)cc2CCN1Cc1nc2c(F)cc(C(=O)O)cc2n1C[C@@H]1CCO1 [Compound I-088] | 10.06
C[C@H]1c2nc(OCc3c(F)cc(C#N)cc3F)c(C(F)(F)F)cc2CCN1Cc1nc2ccc(C(=O)O)cc2n1C[C@@H]1CCO1 [Compound I-107] | 9.97
C[C@H]1c2nc(OCc3ccc(Cl)cn3)c(C(F)F)cc2CCN1Cc1nc2c(F)cc(C(=O)O)cc2n1C[C@@H]1CCO1 [Compound I-112] | 9.72
COc1cc(C(=O)O)cc2c1nc(CN1CCc3cc(Cl)c(OCc4ccc(OC(F)F)cc4F)nc3[C@@H]1C)n2C[C@@H]1CCO1 [Compound I-071] | 10.17
COc1cc(C(=O)O)cc2c1nc(CN1CCc3cc(Cl)c(OCc4ccc(F)cc4)nc3[C@@H]1C)n2C[C@@H]1CCO1 [Compound I-073] | 10.18
C[C@H]1c2nc(OCc3ccc(Cl)cc3Cl)c(Cl)cc2CCN1Cc1nc2ccc(C(=O)O)c(F)c2n1C[C@@H]1CCO1 [Compound I-038] | 10.23
C[C@H]1c2nc(OCc3c(F)cc(Cl)cc3F)c(C#N)cc2CCN1Cc1nc2c(Cl)cc(C(=O)O)cc2n1C[C@@H]1CCO1 [Compound I-185] | 10.24
C[C@H]1c2nc(OCc3c(F)cc(Cl)cc3F)c(Cl)cc2CCN1Cc1nc2ccc(C(=O)O)cc2n1C[C@@H]1CCO1 [Compound I-024] | 9.93
C[C@H]1c2nc(NCc3ncc(Cl)cc3F)c(C(F)(F)F)cc2CCN1Cc1nc2c(F)cc(C(=O)O)cc2n1C[C@@H]1CCO1 [Compound I-191] | 9.58
Cc1nc(COc2nc3c(cc2C(F)(F)F)CCN(Cc2nc4ccc(C(=O)O)cc4n2C[C@@H]2CCO2)[C@H]3C)no1 [Compound I-160] | 7.08
C[C@H]1c2nc(OCc3ccc(Cl)cc3F)c(C#N)cc2CCN1Cc1nc2ccc(C(=O)O)cc2n1C[C@@H]1CCO1 [Compound I-136] | 9.47
C[C@H]1c2nc(OCc3ccc(Cl)cc3F)ncc2CCN1Cc1nc2ccc(C(=O)O)cc2n1C[C@@H]1CCO1 [Compound I-080] | 8.03
